test: Biodistribution of 67Ga complexes in mice; format: in vivo, balb/c mice; conditions: 10 min
Consider the following compounds and their measured biodistribution liver readings.

{"compound": "CC(C)(C)c1ccc(O)c(NC(=O)CN(CCN(CC(=O)O)CC(=O)Nc2cc(C(C)(C)C)ccc2O)CC(=O)O)c1 [Compound 4]", "biodistribution liver, % ID": 8.29}
{"compound": "O=C(O)CN(CCN(CC(=O)O)CC(=O)Nc1ccccc1O)CC(=O)Nc1ccccc1O [Compound 1]", "biodistribution liver, % ID": 22.77}
{"compound": "O=C(O)CN(CCN(CC(=O)O)CC(=O)Nc1ccc(Cl)cc1O)CC(=O)Nc1ccc(Cl)cc1O [Compound 2]", "biodistribution liver, % ID": 23.34}
{"compound": "Cc1cc(C)c(O)c(NC(=O)CN(CCN(CC(=O)O)CC(=O)Nc2cc(C)cc(C)c2O)CC(=O)O)c1 [Compound 6]", "biodistribution liver, % ID": 18.58}
